# target: Nuclear receptor subfamily 1 group I member 2 (Rattus norvegicus) (UniProt Q9R1A7)
# Sequence (Q9R1A7 whole entry, looked up): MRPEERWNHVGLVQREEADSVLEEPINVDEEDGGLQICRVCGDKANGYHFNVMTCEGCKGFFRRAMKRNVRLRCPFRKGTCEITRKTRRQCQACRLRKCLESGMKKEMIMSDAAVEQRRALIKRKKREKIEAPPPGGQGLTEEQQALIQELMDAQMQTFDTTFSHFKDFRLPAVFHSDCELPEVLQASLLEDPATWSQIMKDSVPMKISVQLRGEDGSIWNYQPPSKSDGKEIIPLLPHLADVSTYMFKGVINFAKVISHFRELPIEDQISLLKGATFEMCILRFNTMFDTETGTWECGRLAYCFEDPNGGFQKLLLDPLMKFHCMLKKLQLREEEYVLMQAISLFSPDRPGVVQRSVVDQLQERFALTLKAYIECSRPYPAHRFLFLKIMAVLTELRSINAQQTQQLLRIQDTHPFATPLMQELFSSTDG
# assayInfo: qHTS assay for small molecule activators of the rat pregnane X receptor (rPXR) signaling pathway (AID 651751); also: 0% is about no effect
# settings: rPXR reporter cells, luciferase (One-Glo), 24 h
measuredProperty: max response (%)
Numbers only, in %.

// below: answered molecules
N#C/C(N)=C(/N)C#N; -1.96
Oc1cc(Cl)c(Cl)c(Cl)c1Cl; -6.73
Oc1ccc(Cl)c(Cl)c1; -0.245
CC1CC(=O)O1 (stereo not drawn); 0.366
O=C(Cl)c1ccccc1F; 4.78

I would be grateful if you could provide max response for each of the following entries.
1. O=[N+]([O-])c1cccc(CCl)c1
2. O=C(O)CBr
3. CCBr

stdout:
1. -4.81
2. 2.42
3. 4.52

---

# target: Lysosomal acid glucosylceramidase (Homo sapiens) (UniProt P04062)
# Sequence (P04062 whole entry, looked up): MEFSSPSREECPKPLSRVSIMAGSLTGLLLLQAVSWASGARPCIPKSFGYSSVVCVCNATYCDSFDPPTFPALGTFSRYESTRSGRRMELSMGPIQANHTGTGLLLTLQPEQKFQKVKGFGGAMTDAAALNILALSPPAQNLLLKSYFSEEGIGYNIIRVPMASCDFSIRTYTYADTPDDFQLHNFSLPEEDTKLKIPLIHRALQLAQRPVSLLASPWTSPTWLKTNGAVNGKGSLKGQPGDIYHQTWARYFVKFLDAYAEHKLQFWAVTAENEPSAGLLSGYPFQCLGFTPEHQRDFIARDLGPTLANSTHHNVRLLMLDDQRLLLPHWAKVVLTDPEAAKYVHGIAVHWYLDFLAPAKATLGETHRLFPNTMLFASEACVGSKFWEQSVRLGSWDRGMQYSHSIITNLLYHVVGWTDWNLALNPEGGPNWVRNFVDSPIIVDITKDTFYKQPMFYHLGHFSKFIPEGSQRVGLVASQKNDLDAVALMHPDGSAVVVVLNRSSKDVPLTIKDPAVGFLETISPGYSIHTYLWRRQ
# assayInfo: Glucocerebrosidase-p2 (AID 348); also: potency is read from the fitted curve at half-maximal effect
# settings: purified GBA, blue fluorogenic substrate, 40 min
Active and inactive are the calls of the source. No stated cut-off is given here; in the data, active means potency below about 10 µM; inactive means the rest.
Pick one and only one: True for active, False for inactive

Study these solved cases before continuing.
O=C(O)[C@@H]1[C@H](C(=O)O)[C@]2(Cl)C(Cl)=C(Cl)[C@@]1(Cl)C2(Cl)Cl; False
C[C@@H]1O[C@@H](O[C@H]2C[C@@H](O)[C@@]3(CO)[C@H]4[C@H](O)C[C@]5(C)[C@@H](C6=CC(=O)OC6)CC[C@]5(O)[C@H]4CC[C@@]3(O)C2)[C@@H](O)[C@H](O)[C@H]1O; False
c1ccc(CCN2CCCCCC2)nc1; False
O=C(O)c1cc[c]([Hg][S]c2ncnc3nc[nH]c23)cc1; True
Cc1cc[c]([Sb]2[O][C@H]([C@H](O)[C@H](O)C(=O)O)[C@@H](CO)[O]2)cc1; False
NC1(P(=O)(O)O)CCCCC1; False

stdin: Which outcome did this test record for the molecule C[C@@H]1O[C@H](OC2[C@@H](O)[C@H](O)C(O)[C@H](O)[C@H]2O)[C@@H](N)C[C@@H]1N=C(N)C(=O)O (stereo not given in full) ?
stdout: False

stdin: Which outcome did this test record for the molecule O=C(O)C[O][Sb][O]CC(=O)O ?
stdout: False

stdin: Which outcome did this test record for the molecule O=C(O)CSCC(=O)O ?
stdout: False

stdin: Which outcome did this test record for the molecule O=[N+]([O-])c1cc(-c2ccc([As](=O)(O)O)cc2)ccc1[As](=O)(O)O ?
stdout: False

stdin: Which outcome did this test record for the molecule C[C@H]1CC[C@@]2(NC1)O[C@@H]1C[C@@H]3[C@@H]4CC=C5C[C@@H](O)CC[C@]5(C)[C@@H]4CC[C@]3(C)[C@H]1[C@@H]2C ?
stdout: False

---

# Test system: HIV-1 nucleocapsid protein NCp7 (binding to TG oligonucleotide)
# assayInfo: HIV Nucleocapsid (AID 346);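 also: potency is read from the fitted curve at half-maximal effect; potency is for inhibitors that block NC binding and lower polarization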
# settings: HIV-1 NC / fluorescein-TGTGTGTG probe, fluorescence polarization
The source made the active and inactive calls. The rule behind the calls is not given here.
Pick one and only one: true (active), false (inactive)

Study these solved cases before continuing.
CN(C)c1ncc2nc(-c3ccc(F)cc3)c(=O)n(-c3ccccc3)c2n1; false
COc1cccc(Cn2c(=O)c(-c3cccs3)nc3cnc(Nc4cccc(OC)c4)nc32)c1; false
Cc1noc(C)c1-c1nc(N(C)C)c2ccccc2n1; false

stdin: Which outcome did this test record for the compound O=C(c1ccco1)N1CCC2(CCCN(c3ccncc3)C2)CC1 ?
stdout: false

stdin: Which outcome did this test record for the compound Cc1cccc(CNc2ccnc(-c3ccoc3)n2)c1 ?
stdout: false

stdin: Which outcome did this test record for the compound COc1ccc(-n2c(=O)cnc3cnc(N4CCOCC4)nc32)cc1 ?
stdout: false

stdin: Which outcome did this test record for the compound COc1ccccc1-c1cncnc1N(C)Cc1ccco1 ?
stdout: false

stdin: Which outcome did this test record for the compound COc1ncc2nc(-c3cn(C)c4ccccc34)c(=O)n(Cc3ccc(F)cc3)c2n1 ?
stdout: false

stdin: Which outcome did this test record for the compound Cn1cccc1C(=O)N1CCC2(CCCN(C(c3ccccc3)c3ccccc3)C2)CC1 ?
stdout: false

stdin: Which outcome did this test record for the compound O=C(c1cc(C(F)(F)F)cc(C(F)(F)F)c1)N1CCC[C@@]2(CCN(Cc3ccncc3)C2)C1 ?
stdout: false

stdin: Which outcome did this test record for the compound COc1ncc2nc(-c3ccc(Cl)cc3)c(=O)n(C)c2n1 ?
stdout: false

stdin: Which outcome did this test record for the compound O=c1c(-c2cc(F)cc(F)c2)nc2cnc(N3CCNCC3)nc2n1-c1ccccc1 ?
stdout: false

stdin: Which outcome did this test record for the compound Cc1ccccc1-c1cc(Nc2ccccc2)ncn1 ?
stdout: false

stdin: Which outcome did this test record for the compound COc1ccccc1-c1ccc2ncnc(N(C)C)c2c1 ?
stdout: false

---

# assayInfo: qHTS assay for small molecule disruptors of the mitochondrial membrane potential - 1 hr assay (AID 651754); also: % is scaled to controls: 0 for no effect and ±100 for the full control effect; nearly all actives have a fitted effect of over 35% in size
# settings: series mostly up to 92.2 µM
Inconclusive results are not listed. The source made the active and inactive calls. Calls follow the shape of the full dose curve.
Pick one and only one: y (active), n (inactive)

Oc1cccc(Cl)c1; n
O=[N+]([O-])c1cc(Cl)c(Cl)c(Cl)c1; n
CC(C)C#N; n
Nc1ccc(Cl)c(Cl)c1; n
Oc1c(Cl)cccc1Cl; n

stdin: Which outcome did this test record for the compound Cc1ccc(N)cc1Cl ?
stdout: n

stdin: Which outcome did this test record for the compound c1ccc(C2CO2)cc1 (stereo not drawn) ?
stdout: n

stdin: Which outcome did this test record for the compound CCCCOC(C)=O ?
stdout: n

---

# assayInfo: AP1 Signaling Pathway (AID 357);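 also: ME-180 reporter cells stimulated with EGF at its EC50 level; % is scaled to controls: 0 for no effect and ±100 for the full control effect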
# settings: ME-180 (cervical carcinoma) AP-1-bla reporter, EGF-induced, beta-lactamase ratio, 5 h; at 7.69 µM (top of the series) unless noted
Inconclusive results are not listed. Active and inactive are the calls of the source. The call rests on the fitted dose curve; in most records, active means well fitted curve in either direction with a large enough effect (not every such curve was filed as active); inconclusive means small, poorly fitted or top-dose-only effect, or another doubt; inactive means flat fitted curve, though single readings scatter.
measuredProperty: activity change, negative = inhibition

CN(C)CCCNc1c2c(nc3ccc(Cl)cc13)CCCC2; -1.02% (inactive)

I would be grateful if you could provide activity change, negative = inhibition for each of the following entries.
1. C#CCN[C@@H](C)Cc1ccccc1
2. COc1cc2c(cc1OC)[C@]13CC[N@+]4(C)CC5=CCO[C@H]6CC(=O)N2[C@@H]1[C@@H]6[C@@H]5C[C@]34O
3. C[Se]C[C@@H](N)C(=O)O
4. Cc1ccc(C2(c3ccc(C)c(O)c3C)CCN(C)CC2)c(C)c1O
5. ClCC[N+]12CC[N+](CCCl)(CC1)C2 (tested in a mixture with another compound)
6. O=[As](O)(O)c1ccc(NCc2ccccc2)cc1
7. Cc1nc2ccccc2cc1C[N+]12CN3CN(CN(C3)C1)C2

stdout:
1: 1.81% [at 38 µM] (inactive); 2: -12.3% (inactive); 3: 1.98% [at 38 µM] (inactive); 4: 2.94% (inactive); 5: 1.69% (inactive); 6: -4.31% (inactive); 7: -8.29% (inactive)

---

# target: Mitogen-activated protein kinase 10 (Mus musculus)
# assayInfo: JNK3 AlphaScreen Assay (AID 530);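 also: kinase came from lysate of stimulated human HepG2 cells; signal reports phosphorylation of biotinylated GST-cJun 1-79 at Ser73 with 10 µM ATP; % is scaled to controls: 0 for no effect and ±100 for the full control effect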
# settings: JNK3 lysate, c-Jun phosphorylation; series mostly up to 57.1 µM
# Text: NIH Chemical Genomics Center [NCGC] NIH Molecular Libraries Screening Centers Network [MLSCN] The c-jun N-terminal kinase (JNK) family are serine/threonine protein kinases that phosphorylate c-jun, a component of the transcription factor protein-1 (AP-1). […] A homogeneous AlphaScreen is developed to measure the activity of JNK3. […] The phosphorylation of a biotinylated c-jun substrate by JNK3 can be detected with an antibody raised against phosphorylated c-jun. […]
Results filed as inconclusive are left out. Activity calls are given as the source filed them. Calls come from the whole dose curve; as a rule, active = well fitted curve in either direction with a large enough effect (not every such curve was filed as active); inconclusive = small, poorly fitted or top-dose-only effect, or another doubt; inactive = flat fitted curve, though single readings scatter.
measuredProperty: activity change, negative = inhibition

Nc1nc(N)c(N=Nc2ccc([As](=O)(O)O)cc2)c(=O)[nH]1; 5.04% [at 11.4 µM] (inactive)
O=C1C[C@@H]2OCC=C3CN4CC[C@]56c7ccccc7N1[C@@H]5[C@@H]2[C@H]3C[C@H]46 (tested in a mixture with another compound); 1.78% [at 11.4 µM] (inactive)
CN(C)N=O; inactive
Cc1nc2ccccc2cc1C[N+]12CN3CN(CN(C3)C1)C2; 0.875% [at 11.4 µM] (inactive)
O=P(O)(OP(=O)(O)c1ccccc1)c1ccccc1 (tested in a mixture with another compound); 3.03% [at 11.4 µM] (inactive)

Now look at this entry.
activity change, negative = inhibition measured on C#CCN[C@@H](C)Cc1ccccc1 = inactive

---

# assayInfo: qHTS assay for environmental chemicals that activate the Aryl hydrocarbon Receptor (AhR) signaling pathway (AID 651777); also: % of control where 0% means no effect; nearly all actives have a fitted effect of over 15% in size
# settings: 1A2-DRE human hepatoma cells, luciferase, 24 h; hits give high values
Inconclusive results are not listed.
measuredProperty: activation (%)
Give bare numbers, in %.

// below: answered compounds
Cc1ccc([N+](=O)[O-])cc1; -0.408
c1ccc(OCC2CO2)cc1 (stereo unspecified); 0.197
CN(C)C(=O)Cl; -0.443

I would be grateful if you could provide activation for each of the following entries.
1. c1ccc(C2CO2)cc1 (stereo unspecified)
2. O=[N+]([O-])c1cc(Cl)c(Cl)c(Cl)c1
3. O=S(=O)(O)F
4. N#CCCCCC#N
5. Oc1cccc(Cl)c1Cl

stdout:
[0.299, 0.049, 0.54, 0.486, 0.0475]

I would be grateful if you could provide activation for each of the following entries.
1. ClC(Cl)Br
2. C=CCOCC1CO1 (stereo unspecified)
3. BrCC(Br)(Br)Br
4. Brc1ccc(Oc2ccc(Br)cc2Br)c(Br)c1

stdout:
1: 0.136; 2: -0.262; 3: 1.69; 4: 7.07

I would be grateful if you could provide activation for each of the following entries.
1. CC(Cl)CCl (stereo unspecified)
2. COC(=O)Nc1nc2ccccc2[nH]1
3. CCCCCC[N+](=O)[O-]
4. ClC(Br)Br
5. c1ccc2c(c1)CCNC2
6. O=NN1CCCCC1
7. CCN(N=O)C(N)=O

stdout:
0.102
7.05
0.0869
0.329
-1.3
1.05
0.0477

I would be grateful if you could provide activation for each of the following entries.
1. CCOC(=O)CBr
2. Cc1coc2c1CCC(C)C2 (stereo unspecified)

stdout:
1. -0.43
2. 1.75
